Where these numbers come from: the NIST ThermoML archive (doi:10.1021/je900407u)

Test: isobaric coefficient of expansion
Details: 348.15 K; 40000 kPa; Liquid; Micro DSCII
Endpoint Label: isobaric coefficient of expansion

Query: Entry CCCCn1cc[n+](C)c1.O=S(=O)([O-])C(F)(F)F [1-butyl-3-methylimidazolium trifluoromethanesulfonate] has what isobaric coefficient of expansion?
Reply: 0.00054 1/K

Query: Entry CCCCn1cc[n+](C)c1.COS(=O)(=O)[O-] [1-butyl-3-methylimidazolium methyl sulfate] has what isobaric coefficient of expansion?
Reply: 0.000494 1/K

Query: Entry CCCC[n+]1ccn(C)c1.O=S(=O)([N-]S(=O)(=O)C(F)(F)F)C(F)(F)F has what isobaric coefficient of expansion?
Reply: 0.000578 1/K

Query: Entry CCCCn1cc[n+](C)c1.F[B-](F)(F)F [1-butyl-3-methylimidazolium tetrafluoroborate] has what isobaric coefficient of expansion?
Reply: 0.000528 1/K

Query: Entry CCCCn1cc[n+](C)c1.[F][Sb-]([F])([F])([F])([F])[F] [1-butyl-3-methylimidazolium hexafluoroantimonate] has what isobaric coefficient of expansion?
Reply: 0.000555 1/K

----------
Assay: isobaric coefficient of expansion
Conditions: 318.15 K; 35000 kPa; Liquid; Micro DSCII
Endpoint Label: isobaric coefficient of expansion

Query: Entry CCCCn1cc[n+](C)c1.COS(=O)(=O)[O-] [1-butyl-3-methylimidazolium methyl sulfate] has what isobaric coefficient of expansion?
Reply: 0.000508 1/K

Query: Entry CCCC[n+]1ccn(C)c1.O=S(=O)([N-]S(=O)(=O)C(F)(F)F)C(F)(F)F has what isobaric coefficient of expansion?
Reply: 0.000597 1/K

Query: Entry CCCCn1cc[n+](C)c1.F[B-](F)(F)F [1-butyl-3-methylimidazolium tetrafluoroborate] has what isobaric coefficient of expansion?
Reply: 0.000547 1/K

Query: Entry CCCCn1cc[n+](C)c1.[F][Sb-]([F])([F])([F])([F])[F] [1-butyl-3-methylimidazolium hexafluoroantimonate] has what isobaric coefficient of expansion?
Reply: 0.00057 1/K

Query: Entry CCCCn1cc[n+](C)c1.O=S(=O)([O-])C(F)(F)F [1-butyl-3-methylimidazolium trifluoromethanesulfonate] has what isobaric coefficient of expansion?
Reply: 0.000557 1/K

----------
Assay: isobaric coefficient of expansion
Settings: 298.15 K; 5000 kPa; Liquid; Micro DSCII
Could you please report measured isobaric coefficient of expansion for the items listed next?

Query: Entry CCCCn1cc[n+](C)c1.COS(=O)(=O)[O-] [1-butyl-3-methylimidazolium methyl sulfate] has what isobaric coefficient of expansion?
Reply: 0.000549 1/K

Query: Entry CCCC[n+]1ccn(C)c1.O=S(=O)([N-]S(=O)(=O)C(F)(F)F)C(F)(F)F has what isobaric coefficient of expansion?
Reply: 0.000662 1/K

Query: Entry CCCCn1cc[n+](C)c1.[F][Sb-]([F])([F])([F])([F])[F] [1-butyl-3-methylimidazolium hexafluoroantimonate] has what isobaric coefficient of expansion?
Reply: 0.000624 1/K

Query: Entry CCCCn1cc[n+](C)c1.O=S(=O)([O-])C(F)(F)F [1-butyl-3-methylimidazolium trifluoromethanesulfonate] has what isobaric coefficient of expansion?
Reply: 0.00061 1/K

Query: Entry CCCCn1cc[n+](C)c1.F[B-](F)(F)F [1-butyl-3-methylimidazolium tetrafluoroborate] has what isobaric coefficient of expansion?
Reply: 0.000594 1/K

----------
Assay: isobaric coefficient of expansion
Conditions: 318.15 K; 45000 kPa; Liquid; Micro DSCII
Endpoint Label: isobaric coefficient of expansion

Query: Entry CCCCn1cc[n+](C)c1.O=S(=O)([O-])C(F)(F)F [1-butyl-3-methylimidazolium trifluoromethanesulfonate] has what isobaric coefficient of expansion?
Reply: 0.000544 1/K

Query: Entry CCCCn1cc[n+](C)c1.F[B-](F)(F)F [1-butyl-3-methylimidazolium tetrafluoroborate] has what isobaric coefficient of expansion?
Reply: 0.000536 1/K

Query: Entry CCCCn1cc[n+](C)c1.[F][Sb-]([F])([F])([F])([F])[F] [1-butyl-3-methylimidazolium hexafluoroantimonate] has what isobaric coefficient of expansion?
Reply: 0.000557 1/K

Query: Entry CCCC[n+]1ccn(C)c1.O=S(=O)([N-]S(=O)(=O)C(F)(F)F)C(F)(F)F has what isobaric coefficient of expansion?
Reply: 0.000581 1/K

Query: Entry CCCCn1cc[n+](C)c1.COS(=O)(=O)[O-] [1-butyl-3-methylimidazolium methyl sulfate] has what isobaric coefficient of expansion?
Reply: 0.000499 1/K

----------
Assay: isobaric coefficient of expansion
Details: 308.15 K; 50000 kPa; Liquid; Micro DSCII
Endpoint Label: isobaric coefficient of expansion

Query: Entry CCCCn1cc[n+](C)c1.O=S(=O)([O-])C(F)(F)F [1-butyl-3-methylimidazolium trifluoromethanesulfonate] has what isobaric coefficient of expansion?
Reply: 0.000543 1/K

Query: Entry CCCC[n+]1ccn(C)c1.O=S(=O)([N-]S(=O)(=O)C(F)(F)F)C(F)(F)F has what isobaric coefficient of expansion?
Reply: 0.000578 1/K

Query: Entry CCCCn1cc[n+](C)c1.F[B-](F)(F)F [1-butyl-3-methylimidazolium tetrafluoroborate] has what isobaric coefficient of expansion?
Reply: 0.000535 1/K

Query: Entry CCCCn1cc[n+](C)c1.[F][Sb-]([F])([F])([F])([F])[F] [1-butyl-3-methylimidazolium hexafluoroantimonate] has what isobaric coefficient of expansion?
Reply: 0.000558 1/K

Query: Entry CCCCn1cc[n+](C)c1.COS(=O)(=O)[O-] [1-butyl-3-methylimidazolium methyl sulfate] has what isobaric coefficient of expansion?
Reply: 0.0005 1/K

----------
Assay: isobaric coefficient of expansion
Settings: 348.15 K; 30000 kPa; Liquid; Micro DSCII
Could you please report measured isobaric coefficient of expansion for the items listed next?

Query: Entry CCCCn1cc[n+](C)c1.F[B-](F)(F)F [1-butyl-3-methylimidazolium tetrafluoroborate] has what isobaric coefficient of expansion?
Reply: 0.000539 1/K

Query: Entry CCCCn1cc[n+](C)c1.[F][Sb-]([F])([F])([F])([F])[F] [1-butyl-3-methylimidazolium hexafluoroantimonate] has what isobaric coefficient of expansion?
Reply: 0.000567 1/K

Query: Entry CCCC[n+]1ccn(C)c1.O=S(=O)([N-]S(=O)(=O)C(F)(F)F)C(F)(F)F has what isobaric coefficient of expansion?
Reply: 0.000595 1/K

Query: Entry CCCCn1cc[n+](C)c1.COS(=O)(=O)[O-] [1-butyl-3-methylimidazolium methyl sulfate] has what isobaric coefficient of expansion?
Reply: 0.000502 1/K

Query: Entry CCCCn1cc[n+](C)c1.O=S(=O)([O-])C(F)(F)F [1-butyl-3-methylimidazolium trifluoromethanesulfonate] has what isobaric coefficient of expansion?
Reply: 0.000552 1/K

----------
Could you please report measured isobaric coefficient of expansion for the items listed next?
Test: isobaric coefficient of expansion
Settings: 288.15 K; 10000 kPa; Liquid; Micro DSCII

Query: Entry CCCCn1cc[n+](C)c1.F[B-](F)(F)F [1-butyl-3-methylimidazolium tetrafluoroborate] has what isobaric coefficient of expansion?
Reply: 0.000592 1/K

Query: Entry CCCCn1cc[n+](C)c1.COS(=O)(=O)[O-] [1-butyl-3-methylimidazolium methyl sulfate] has what isobaric coefficient of expansion?
Reply: 0.00055 1/K

Query: Entry CCCCn1cc[n+](C)c1.[F][Sb-]([F])([F])([F])([F])[F] [1-butyl-3-methylimidazolium hexafluoroantimonate] has what isobaric coefficient of expansion?
Reply: 0.000621 1/K

Query: Entry CCCC[n+]1ccn(C)c1.O=S(=O)([N-]S(=O)(=O)C(F)(F)F)C(F)(F)F has what isobaric coefficient of expansion?
Reply: 0.000656 1/K

Query: Entry CCCCn1cc[n+](C)c1.O=S(=O)([O-])C(F)(F)F [1-butyl-3-methylimidazolium trifluoromethanesulfonate] has what isobaric coefficient of expansion?
Reply: 0.000607 1/K

----------
Assay: isobaric coefficient of expansion
Details: 278.15 K; 5000 kPa; Liquid; Micro DSCII
Endpoint Label: isobaric coefficient of expansion

Query: Entry CCCCn1cc[n+](C)c1.[F][Sb-]([F])([F])([F])([F])[F] [1-butyl-3-methylimidazolium hexafluoroantimonate] has what isobaric coefficient of expansion?
Reply: 0.000636 1/K

Query: Entry CCCCn1cc[n+](C)c1.COS(=O)(=O)[O-] [1-butyl-3-methylimidazolium methyl sulfate] has what isobaric coefficient of expansion?
Reply: 0.000563 1/K

Query: Entry CCCCn1cc[n+](C)c1.F[B-](F)(F)F [1-butyl-3-methylimidazolium tetrafluoroborate] has what isobaric coefficient of expansion?
Reply: 0.000605 1/K

Query: Entry CCCCn1cc[n+](C)c1.O=S(=O)([O-])C(F)(F)F [1-butyl-3-methylimidazolium trifluoromethanesulfonate] has what isobaric coefficient of expansion?
Reply: 0.000621 1/K

Query: Entry CCCC[n+]1ccn(C)c1.O=S(=O)([N-]S(=O)(=O)C(F)(F)F)C(F)(F)F has what isobaric coefficient of expansion?
Reply: 0.000672 1/K
